tested on: OVCAR-5 complex spheroids with HUVEC/MSC, viability, % test/control; assay: Anticancer human tumor OVCAR-5 cell line growth inhibition [AhR]; conditions: second compound 1 µM; first compound 0.000949 µM; stronger effect = lower value;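 note: spheroids exposed to compounds for 7 days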;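 for viability, T/C: 100% = DMSO vehicle control wells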
viability, T/C values, listed per item
Unit % implied. Number only.

compound	target_entity	viability, T/C (%)
CCc1c2c(nc3ccc(O)cc13)-c1cc3c(c(=O)n1C2)COC(=O)[C@]3(O)CC + Cc1cncc(-c2nc(NCCc3c[nH]c4ccccc34)c3ncn(C(C)C)c3n2)c1	OVCAR-5 complex spheroids with HUVEC/MSC, viability, % test/control	73.1

Query: Given the entry Nc1ncn(C2CC(O)C(CO)S2)c(=O)n1 (centres undefined) + CC(CO)NC(=O)c1cc(-c2ccc(Cl)cc2)nn(-c2cnn(C)c2)c1=O , report its measured viability, T/C.
Result: 109

Query: Given the entry CC(C)CC(NC(=O)C(Cc1ccccc1)NC(=O)c1cnccn1)B(O)O (centres undefined) + Cc1ccccc1N=Nc1ccc(NC(=O)c2ccnn2C)c(C)c1 , report its measured viability, T/C.
Result: 108

Query: Given the entry CCc1c2c(nc3ccc(O)cc13)-c1cc3c(c(=O)n1C2)COC(=O)[C@]3(O)CC + CC(CO)NC(=O)c1cc(-c2ccc(Cl)cc2)nn(-c2cnn(C)c2)c1=O , report its measured viability, T/C.
Result: 70.5

Query: Given the entry CCc1c2c(nc3ccc(O)cc13)-c1cc3c(c(=O)n1C2)COC(=O)[C@]3(O)CC + Cc1ccccc1N=Nc1ccc(NC(=O)c2ccnn2C)c(C)c1 , report its measured viability, T/C.
Result: 91.3

Query: Given the entry Nc1ncn(C2CC(O)C(CO)S2)c(=O)n1 (centres undefined) + Cc1cncc(-c2nc(NCCc3c[nH]c4ccccc34)c3ncn(C(C)C)c3n2)c1 , report its measured viability, T/C.
Result: 87.8

Query: Given the entry CC(C)CC(NC(=O)C(Cc1ccccc1)NC(=O)c1cnccn1)B(O)O (centres undefined) + Cc1cncc(-c2nc(NCCc3c[nH]c4ccccc34)c3ncn(C(C)C)c3n2)c1 , report its measured viability, T/C.
Result: 96.7

Query: Given the entry CC(C)CC(NC(=O)C(Cc1ccccc1)NC(=O)c1cnccn1)B(O)O (centres undefined) + CC(CO)NC(=O)c1cc(-c2ccc(Cl)cc2)nn(-c2cnn(C)c2)c1=O , report its measured viability, T/C.
Result: 107

Query: Given the entry Nc1ncn(C2CC(O)C(CO)S2)c(=O)n1 (centres undefined) + Cc1ccccc1N=Nc1ccc(NC(=O)c2ccnn2C)c(C)c1 , report its measured viability, T/C.
Result: 114

====

tested on: OVCAR-5 complex spheroids with HUVEC/MSC, viability, % test/control; assay: Anticancer human tumor OVCAR-5 cell line growth inhibition [AhR]; conditions: second compound 10 µM; first compound 0.03 µM; stronger effect = lower value;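 note: spheroids exposed to compounds for 7 days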;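 for viability, T/C: 100% = DMSO vehicle control wells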
viability, T/C values, listed per item
Unit % implied. Number only.

> print(dat)
                                   molecule  reading
1  O=C(C=Cn1cnc(-c2cc(C(F)(F)F)cc(C(F)(F)F)c2)n1)NNc1cnccn1 + CC(CO)NC(=O)c1cc(-c2ccc(Cl)cc2)nn(-c2cnn(C)c2)c1=O     98.2
2  O=C(C=Cn1cnc(-c2cc(C(F)(F)F)cc(C(F)(F)F)c2)n1)NNc1cnccn1 + Cc1cncc(-c2nc(NCCc3c[nH]c4ccccc34)c3ncn(C(C)C)c3n2)c1       15

Turning now to a further record.
Query: Given the entry O=C(C=Cn1cnc(-c2cc(C(F)(F)F)cc(C(F)(F)F)c2)n1)NNc1cnccn1 + Cc1ccccc1N=Nc1ccc(NC(=O)c2ccnn2C)c(C)c1 , report its measured viability, T/C.
Result: 111

====

Test system: OVCAR-5 complex spheroids with HUVEC/MSC, viability, % test/control
Test: Anticancer human tumor OVCAR-5 cell line growth inhibition [AhR];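 note: spheroids exposed to compounds for 7 days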;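 for viability, T/C: 100% = DMSO vehicle control wells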
Details: second compound 1 µM; first compound 10 µM; stronger effect = lower value
Source text: Multicellular complex tumor spheroid response to aryl hydrocarbon receptor antagonists in combination with a variety of drugs and investigational agents in selected tumor cell lines […] Compounds. […] If the clinical Cmax for an agent had not been determined, the highest concentration tested was 10 microM (Table 1). […]
# label = Satisfied if viability, T/C < 30% else Not satisfied

Look over these answered cases.
compound	target_entity	class_assignment
CC1COCCN1c1cc(C2(S(C)(=N)=O)CC2)nc(-c2ccnc3[nH]ccc23)n1 (stereo unspecified) + Cc1cncc(-c2nc(NCCc3c[nH]c4ccccc34)c3ncn(C(C)C)c3n2)c1	OVCAR-5 complex spheroids with HUVEC/MSC, viability, % test/control	Not satisfied
CC(C)c1c(-c2ccccc2)nc2c(C#N)c[nH]n2c1=O + CC(CO)NC(=O)c1cc(-c2ccc(Cl)cc2)nn(-c2cnn(C)c2)c1=O	OVCAR-5 complex spheroids with HUVEC/MSC, viability, % test/control	Not satisfied
Nc1ccccc1NC(=O)c1ccc(CNC(=O)OCc2cccnc2)cc1 + Cc1ccccc1N=Nc1ccc(NC(=O)c2ccnn2C)c(C)c1	OVCAR-5 complex spheroids with HUVEC/MSC, viability, % test/control	Satisfied
CC1COCCN1c1cc(C2(S(C)(=N)=O)CC2)nc(-c2ccnc3[nH]ccc23)n1 (stereo unspecified) + CC(CO)NC(=O)c1cc(-c2ccc(Cl)cc2)nn(-c2cnn(C)c2)c1=O	OVCAR-5 complex spheroids with HUVEC/MSC, viability, % test/control	Not satisfied

Query: Here's an entry: CC1(C)CCC(CN2CCN(c3ccc(C(=O)NS(=O)(=O)c4ccc(NCC5CCOCC5)c([N+](=O)[O-])c4)c(Oc4cnc5[nH]ccc5c4)c3)CC2)=C(c2ccc(Cl)cc2)C1 + Cc1cncc(-c2nc(NCCc3c[nH]c4ccccc34)c3ncn(C(C)C)c3n2)c1 . Is its viability, T/C below 30%?
Result: Not satisfied

Query: Here's an entry: COc1ccc([C@@H](O)c2cc(-c3ncnc4cc(N5CCOCC5)ccc34)c(F)cc2Cl)nn1 + Cc1ccccc1N=Nc1ccc(NC(=O)c2ccnn2C)c(C)c1 . Is its viability, T/C below 30%?
Result: Satisfied

====

Tested on: OVCAR-5 complex spheroids with HUVEC/MSC, viability, % test/control
Experiment: Anticancer human tumor OVCAR-5 cell line growth inhibition [AhR];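 note: spheroids exposed to compounds for 7 days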
Details: compound alone; run of 08/22/2022
Excerpt: Multicellular complex tumor spheroid response to aryl hydrocarbon receptor antagonists in combination with a variety of drugs and investigational agents in selected tumor cell lines […] Compounds. […] If the clinical Cmax for an agent had not been determined, the highest concentration tested was 10 microM (Table 1). […]
pIC50: −log10 of the molar value.
reported_metric: pIC50

Query: Given the entry `Cc1ccccc1N=Nc1ccc(NC(=O)c2ccnn2C)c(C)c1` , report its measured pIC50.
Result: < 5.00

====

system: OVCAR-5 complex spheroids with HUVEC/MSC, viability, % test/control; test: Anticancer human tumor OVCAR-5 cell line growth inhibition [AhR]; conditions: curve of first compound; second compound 0.316 µM;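 note: spheroids exposed to compounds for 7 days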
reported_metric: IC50 (nM)
Unit nM implied. Number only.

The following compounds have reported results that may help.
compound	IC50 / nM
CC(C)CC(NC(=O)C(Cc1ccccc1)NC(=O)c1cnccn1)B(O)O (stereo unspecified) + Cc1ccccc1N=Nc1ccc(NC(=O)c2ccnn2C)c(C)c1	48.2
NS(=O)(=O)OCC1CC(n2ccc3c(NC4CCc5ccccc54)ncnc32)CC1O (stereo unspecified) + CC(CO)NC(=O)c1cc(-c2ccc(Cl)cc2)nn(-c2cnn(C)c2)c1=O	159

Turning now to a further record.
Query: Given the entry CC(C)CC(NC(=O)C(Cc1ccccc1)NC(=O)c1cnccn1)B(O)O (stereo unspecified) + Cc1cncc(-c2nc(NCCc3c[nH]c4ccccc34)c3ncn(C(C)C)c3n2)c1 , report its measured IC50.
Result: 57.2

====

tested on: OVCAR-5 complex spheroids with HUVEC/MSC, viability, % test/control; assay: Anticancer human tumor OVCAR-5 cell line growth inhibition [AhR]; settings: second compound 10 µM; first compound 10 µM; stronger effect = lower value;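 note: spheroids exposed to compounds for 7 days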;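 for viability, T/C: 100% = DMSO vehicle control wells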
viability, T/C values, listed per item
Unit % implied. Number only.

molecule	viability, T/C, %
Nc1ccccc1NC(=O)c1ccc(CNC(=O)OCc2cccnc2)cc1 + CC(CO)NC(=O)c1cc(-c2ccc(Cl)cc2)nn(-c2cnn(C)c2)c1=O	4.72
Nc1ccccc1NC(=O)c1ccc(CNC(=O)OCc2cccnc2)cc1 + Cc1ccccc1N=Nc1ccc(NC(=O)c2ccnn2C)c(C)c1	9.42
O=C(c1cc(Cc2n[nH]c(=O)c3ccccc23)ccc1F)N1CCN(C(=O)C2CC2)CC1 + Cc1cncc(-c2nc(NCCc3c[nH]c4ccccc34)c3ncn(C(C)C)c3n2)c1	13.1
NS(=O)(=O)OCC1CC(n2ccc3c(NC4CCc5ccccc54)ncnc32)CC1O (configuration not stated) + Cc1ccccc1N=Nc1ccc(NC(=O)c2ccnn2C)c(C)c1	7.56
CC(C)c1c(-c2ccccc2)nc2c(C#N)c[nH]n2c1=O + Cc1cncc(-c2nc(NCCc3c[nH]c4ccccc34)c3ncn(C(C)C)c3n2)c1	25.1

Query: Given the entry COc1cc(Nc2ncc3c(n2)-c2ccc(Cl)cc2C(c2c(F)cccc2OC)=NC3)ccc1C(=O)O + Cc1cncc(-c2nc(NCCc3c[nH]c4ccccc34)c3ncn(C(C)C)c3n2)c1 , report its measured viability, T/C.
Result: 12.2

Query: Given the entry Nc1ccccc1NC(=O)c1ccc(CNC(=O)OCc2cccnc2)cc1 + Cc1cncc(-c2nc(NCCc3c[nH]c4ccccc34)c3ncn(C(C)C)c3n2)c1 , report its measured viability, T/C.
Result: 0.51

Query: Given the entry COc1cc(C2c3cc4c(cc3C(OC3OC5COC(C)OC5C(O)C3O)C3COC(=O)C23)OCO4)cc(OC)c1O (configuration not stated) + Cc1cncc(-c2nc(NCCc3c[nH]c4ccccc34)c3ncn(C(C)C)c3n2)c1 , report its measured viability, T/C.
Result: 7.82

Query: Given the entry NS(=O)(=O)OCC1CC(n2ccc3c(NC4CCc5ccccc54)ncnc32)CC1O (configuration not stated) + Cc1cncc(-c2nc(NCCc3c[nH]c4ccccc34)c3ncn(C(C)C)c3n2)c1 , report its measured viability, T/C.
Result: 0.48

Query: Given the entry O=C(C=Cc1cccc(S(=O)(=O)Nc2ccccc2)c1)NO + Cc1ccccc1N=Nc1ccc(NC(=O)c2ccnn2C)c(C)c1 , report its measured viability, T/C.
Result: 5.86

Query: Given the entry O=C(C=Cc1cccc(S(=O)(=O)Nc2ccccc2)c1)NO + Cc1cncc(-c2nc(NCCc3c[nH]c4ccccc34)c3ncn(C(C)C)c3n2)c1 , report its measured viability, T/C.
Result: 2.82

Query: Given the entry COc1ccc([C@@H](O)c2cc(-c3ncnc4cc(N5CCOCC5)ccc34)c(F)cc2Cl)nn1 + CC(CO)NC(=O)c1cc(-c2ccc(Cl)cc2)nn(-c2cnn(C)c2)c1=O , report its measured viability, T/C.
Result: 26.2
